# assay.protocol: protein stability index of a GFP-peptide fusion (yeast GPS) (PSI 1-4); higher = more stable; sorted into four equal gates, so the index is relative within each strain
# cond: doa10∆
Label TRUE for high-side protein stability index (at or above 2) and FALSE for low-side protein stability index (below it).

Query block: Test whether the sequence LAVCDELGNMTMLITGQ [SIN4] records protein stability index of 2 or higher.
Result block: TRUE

Query block: And what about the sequence TQTVSGTPPMLHQRTHK [DSN1] ?
Result block: TRUE

Query block: Also, TEAGFFAIRDDRDHINP [RPT4] please.
Result block: TRUE

Query block: How about EVESSDTIDNVKSKIQD [RPS31] ?
Result block: TRUE

Query block: Now this one: VIDTLAAGYGKILGKGR [RPL28]
Result block: TRUE

Query block: What about PEIDNLDDLVVLKKKNI [RRP6] ?
Result block: TRUE

Query block: Another: QSNINTNAPLRTLNIQP [YIL149C/MLP2]
Result block: TRUE

Query block: And then PGNRNADNVDKILEQFE [FAS2] , what is it?
Result block: FALSE

Query block: Another sequence to check: YFKSILLNKNTGNNLYD [SWI1]
Result block: TRUE

Query block: And for MENILQRCKSNAISLQL [YIL149C/MLP2] ?
Result block: FALSE

Query block: Request: NGRLNKCGVISPRFNVK [RPS22A]
Result block: TRUE

Query block: Also need VDNVTLESYKTQAKKLY [SRP72] , thanks.
Result block: TRUE

Query block: Would you kindly repeat that for KSTDLTPKGNESEQELS [MTR3] ?
Result block: TRUE

Query block: Field entry: VRSANEDGTFSVLYPDE [RRP43]
Result block: TRUE

Query block: Let us now turn to LLTKNVSCYRPRRDGER [RPS6A]
Result block: FALSE

Query block: Entry CYAPRPSAGPHKLRESL [RPS4A] please
Result block: TRUE

Query block: Try this sequence too: VQQQQQQQLRNQIQRQQ [SNF5]
Result block: TRUE

Query block: Next sequence up: GYDINYISKIGEKIDSN [SWI1]
Result block: TRUE

Query block: Now the sequence MKPSDNISTNTNIHEPQ [SSN2]
Result block: TRUE

Query block: Now give it for LQAQLDYLNAELGEFFV [FAS2] too.
Result block: TRUE

Query block: Continue with IGIVEIAHENEQKWLIY [SRB8]
Result block: FALSE

Query block: Another sequence to look at: SDEERDDEDDEHNPTIV [AAR2]
Result block: TRUE

Query block: And then EEFAYVDPARRQILFKY [MED6] , what is it?
Result block: TRUE

Query block: What do we get for GLGMISASHILIPASDL [PRP8] ?
Result block: TRUE

Query block: Here is the next sequence: GTPLLEVRGQVPVIESA [SNU114]
Result block: FALSE

Query block: Can you check ERVIVVTGFAEVGPWGS [FAS2] next?
Result block: FALSE

Query block: And LHYIPKYNRYEKRHKNV [RPS11A] ?
Result block: TRUE

Query block: Please do the same for ALDTNGTSATTETLTSK [SIR4] as well.
Result block: TRUE

Query block: Record: TDVLEISKQRTFAVILF [YMR129W/POM152]
Result block: FALSE

Query block: What do you have for LGINLVTADTVILFDSD [ISW2] ?
Result block: TRUE
